# Tested on: 168753-222-R-J1-PDC complex spheroid viability
# Experimental protocol: Anticancer human tumor 168753-222-R-J1-PDC patient-derived bladder carcinoma cell line growth inhibition [CLK]
# Condition notes: second compound 0.1 µM; first compound 10 µM; active compounds read low
Observed property: viability, T/C (%)

>  <Compound>
O=C(c1cc(Cc2n[nH]c(=O)c3ccccc23)ccc1F)N1CCN(C(=O)C2CC2)CC1 + CN1CCN(c2cc(C(=O)Nc3cc4cc(-c5cnn(C)c5)ccc4cn3)ccn2)CC1

>  <Result>
40.1

$$$$
>  <Compound>
CC1COCCN1c1cc(C2(S(C)(=N)=O)CC2)nc(-c2ccnc3[nH]ccc23)n1 (configuration not stated) + CN1CCN(c2cc(C(=O)Nc3cc4cc(-c5cnn(C)c5)ccc4cn3)ccn2)CC1

>  <Result>
15.1

$$$$
>  <Compound>
CC1(C)CCC(CN2CCN(c3ccc(C(=O)NS(=O)(=O)c4ccc(NCC5CCOCC5)c([N+](=O)[O-])c4)c(Oc4cnc5[nH]ccc5c4)c3)CC2)=C(c2ccc(Cl)cc2)C1 + CN1CCN(c2cc(C(=O)Nc3cc4cc(-c5cnn(C)c5)ccc4cn3)ccn2)CC1

>  <Result>
10.3

$$$$
>  <Compound>
COc1ccc([C@@H](O)c2cc(-c3ncnc4cc(N5CCOCC5)ccc34)c(F)cc2Cl)nn1 + CNC(=O)c1ccc(Nc2nc(OC3CCCC3)c3c(-c4ccc5nc(C)oc5c4)c[nH]c3n2)c(OC)c1

>  <Result>
16.8

$$$$
>  <Compound>
Nc1ccccc1NC(=O)c1ccc(CNC(=O)OCc2cccnc2)cc1 + CNC(=O)c1ccc(Nc2nc(OC3CCCC3)c3c(-c4ccc5nc(C)oc5c4)c[nH]c3n2)c(OC)c1

>  <Result>
15.4

$$$$
>  <Compound>
CC1(C)CCC(CN2CCN(c3ccc(C(=O)NS(=O)(=O)c4ccc(NCC5CCOCC5)c([N+](=O)[O-])c4)c(Oc4cnc5[nH]ccc5c4)c3)CC2)=C(c2ccc(Cl)cc2)C1 + CNC(=O)c1ccc(Nc2nc(OC3CCCC3)c3c(-c4ccc5nc(C)oc5c4)c[nH]c3n2)c(OC)c1

>  <Result>
14

$$$$
>  <Compound>
C=CC(=O)N1CCN(c2nc(=O)n(-c3c(C)ccnc3C(C)C)c3nc(-c4c(O)cccc4F)c(F)cc23)C(C)C1 (configuration not stated) + CN1CCN(c2cc(C(=O)Nc3cc4cc(-c5cnn(C)c5)ccc4cn3)ccn2)CC1

>  <Result>
32.1

$$$$

* * *

# System: 168753-222-R-J1-PDC complex spheroid viability
# Experimental protocol: Anticancer human tumor 168753-222-R-J1-PDC cell line growth inhibition [CLK];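 also: luminescence signal used as surrogate for viable cell amount; viability measured after seven days of drug exposure; 100% = DMSO vehicle control wells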
# Condition notes: second compound 1 µM; first compound 0.1 µM; active compounds read low
Reported viability, T/C is given for each of the following molecules.

>  <Molecule>
CCCS(=O)(=O)Nc1ccc(F)c(C(=O)c2c[nH]c3ncc(-c4ccc(Cl)cc4)cc23)c1F + CNC(=O)c1ccc(Nc2nc(OC3CCCC3)c3c(-c4ccc5nc(C)oc5c4)c[nH]c3n2)c(OC)c1

>  <viability, T/C, %>
50.7

$$$$
>  <Molecule>
CCCS(=O)(=O)Nc1ccc(F)c(C(=O)c2c[nH]c3ncc(-c4ccc(Cl)cc4)cc23)c1F + CN1CCN(c2cc(C(=O)Nc3cc4cc(-c5cnn(C)c5)ccc4cn3)ccn2)CC1

>  <viability, T/C, %>
0.46

$$$$
>  <Molecule>
CC(Nc1ccc2c(c1)OCCn1cc(N3C(=O)OCC3C(F)F)nc1-2)C(N)=O (stereo unspecified) + CN1CCN(c2cc(C(=O)Nc3cc4cc(-c5cnn(C)c5)ccc4cn3)ccn2)CC1

>  <viability, T/C, %>
0.22

$$$$
>  <Molecule>
CCc1c2c(nc3ccc(O)cc13)-c1cc3c(c(=O)n1C2)COC(=O)[C@]3(O)CC + CNC(=O)c1ccc(Nc2nc(OC3CCCC3)c3c(-c4ccc5nc(C)oc5c4)c[nH]c3n2)c(OC)c1

>  <viability, T/C, %>
14.1

$$$$
>  <Molecule>
Cn1ncnc1[C@H]1c2n[nH]c(=O)c3cc(F)cc(c23)N[C@@H]1c1ccc(F)cc1 + CNC(=O)c1ccc(Nc2nc(OC3CCCC3)c3c(-c4ccc5nc(C)oc5c4)c[nH]c3n2)c(OC)c1

>  <viability, T/C, %>
42

$$$$
>  <Molecule>
Nc1ccccc1NC(=O)c1ccc(CNC(=O)OCc2cccnc2)cc1 + CN1CCN(c2cc(C(=O)Nc3cc4cc(-c5cnn(C)c5)ccc4cn3)ccn2)CC1

>  <viability, T/C, %>
0.23

$$$$
>  <Molecule>
COc1ccc([C@@H](O)c2cc(-c3ncnc4cc(N5CCOCC5)ccc34)c(F)cc2Cl)nn1 + CN1CCN(c2cc(C(=O)Nc3cc4cc(-c5cnn(C)c5)ccc4cn3)ccn2)CC1

>  <viability, T/C, %>
0.12

$$$$
>  <Molecule>
CC1(C)CCC(CN2CCN(c3ccc(C(=O)NS(=O)(=O)c4ccc(NCC5CCOCC5)c([N+](=O)[O-])c4)c(Oc4cnc5[nH]ccc5c4)c3)CC2)=C(c2ccc(Cl)cc2)C1 + CNC(=O)c1ccc(Nc2nc(OC3CCCC3)c3c(-c4ccc5nc(C)oc5c4)c[nH]c3n2)c(OC)c1

>  <viability, T/C, %>
49.5

$$$$
>  <Molecule>
O=C(c1cc(Cc2n[nH]c(=O)c3ccccc23)ccc1F)N1CCN(C(=O)C2CC2)CC1 + CN1CCN(c2cc(C(=O)Nc3cc4cc(-c5cnn(C)c5)ccc4cn3)ccn2)CC1

>  <viability, T/C, %>
0.34

$$$$
>  <Molecule>
COc1c(OCCCN2CCOCC2)ccc2c3n(c(=NC(=O)c4cnc(N)nc4)nc12)CCN3 + CNC(=O)c1ccc(Nc2nc(OC3CCCC3)c3c(-c4ccc5nc(C)oc5c4)c[nH]c3n2)c(OC)c1

>  <viability, T/C, %>
0.43

$$$$
>  <Molecule>
CC(CO)NC(=O)c1cc(-c2ccc(Cl)cc2)nn(-c2cnn(C)c2)c1=O (stereo unspecified) + CNC(=O)c1ccc(Nc2nc(OC3CCCC3)c3c(-c4ccc5nc(C)oc5c4)c[nH]c3n2)c(OC)c1

>  <viability, T/C, %>
51.3

$$$$
